Origin of values: ChEMBL document CHEMBL1208745

Assay: Chemical stability of the compound assessed as half life at 1.24 mM at pH 7.5 by nitrile war-head stability assay in presence of GSH
Assay type: physicochemical
reported_endpoint: half-life at 1240 µM

GET /value?item= `CN1CCN(CCCOc2ccc(-c3cccc(C#N)n3)cc2C(F)(F)F)CC1` &field=half-life at 1240 µM returns > 100 h

###

pIC50: −log10 of the molar value.
Read-out record for Cathepsin K (Homo sapiens, UniProt P43235): pIC50
reported_endpoint: pIC50

Consider the reported pIC50 for these compounds:
{"columns": ["chem_smiles", "observed"],
 "data": [
  ["Cn1cnc2c(C#N)nc(-c3ccc(CCCO)c(C(F)(F)F)c3)cc21", 5.97],
  ["CCN1CCN(CCCOc2ccc(-c3cc4c(ncn4C)c(C#N)n3)cc2C(F)(F)F)CC1", 6.48]
]}

I. CN1CCN(CCCOc2ccc(-c3cc4c(ncn4C)c(C#N)n3)cc2C(F)(F)F)CC1
II. Cn1cnc2c(C#N)nc(-c3ccc(OCc4ccccn4)c(C(F)(F)F)c3)cc21
(Q) Just tell me: smaller pIC50 value, I or II ? Return value: the label identifying the chosen record.
(A) II
(II: 5.64, I: 6.33)

###

Experiment: Chemical stability of the compound assessed as half life at 1.25 mM at pH 7.5 by nitrile war-head stability assay in presence of GSH
Assay type: physicochemical
reported_endpoint: half-life at 1250 µM

The recorded half-life at 1250 µM for `CCN1CCN(CCCOc2ccc(-c3cc4c(ncn4C)c(C#N)n3)cc2C(F)(F)F)CC1` is > 100 h

###

Test: Ratio of drug level in spleen to plasma in C57/BL6 mouse at 0.3 mg/kg, po
Assay type: ADME, organism-based, C57Bl/6
Parameters: dose 0.3 mg/kg, route oral
reported_endpoint: Kp
Hey, just send me the number, nothing else.

Reported Kp for `CCN1CCN(CCCOc2ccc(-c3cc4c(ncn4C)c(C#N)n3)cc2C(F)(F)F)CC1` was 50

###

Biological target: UniProt P25774
Sequence (P25774 whole entry): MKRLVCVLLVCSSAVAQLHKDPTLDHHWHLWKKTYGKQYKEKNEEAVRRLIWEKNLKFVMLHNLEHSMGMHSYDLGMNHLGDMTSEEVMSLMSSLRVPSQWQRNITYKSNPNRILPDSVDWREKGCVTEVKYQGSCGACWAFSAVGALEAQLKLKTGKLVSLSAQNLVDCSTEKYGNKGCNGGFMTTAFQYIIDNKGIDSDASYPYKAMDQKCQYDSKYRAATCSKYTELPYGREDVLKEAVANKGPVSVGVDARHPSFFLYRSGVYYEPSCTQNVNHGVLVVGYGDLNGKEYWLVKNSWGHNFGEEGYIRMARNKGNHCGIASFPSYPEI
Assay: Inhibition of human cathepsin S by fluorescence assay
pIC50: −log10 of the molar value.
reported_endpoint: pIC50

A selection of reference data follows.
{"columns": ["chem_smiles", "reported_endpoint", "observed"],
 "data": [
  ["CCOc1ccc(-c2cc3c(ncn3CCN(C)C)c(C#N)n2)cc1C(F)(F)F", "pIC50", 7.49],
  ["Cn1cnc2c(C#N)nc(-c3ccc(OCc4ccncc4)c(C(F)(F)F)c3)cc21", "pIC50", 8.00],
  ["Cn1cnc2c(C#N)nc(-c3ccc(OC4CCNCC4)c(C(F)(F)F)c3)cc21", "pIC50", 6.50],
  ["Cn1cnc2c(C#N)nc(-c3ccc(OCCN4CCNC(=O)C4)c(C(F)(F)F)c3)cc21", "pIC50", 8.11]
]}

I. Cn1cnc2c(C#N)nc(-c3ccc(OCC4CCNCC4)c(C(F)(F)F)c3)cc21
II. Cn1cnc2c(C#N)nc(-c3ccc(OCCCN4CCCC4)c(C(F)(F)F)c3)cc21
III. CCN1CCN(CCCOc2ccc(-c3cc4c(ncn4C)c(C#N)n3)cc2C(F)(F)F)CC1
IV. CCCOc1ccc(-c2cc3nc[nH]c3c(C#N)n2)cc1C(F)(F)F
V. N#Cc1nc(-c2cccc(C(F)(F)F)c2)cc2nc[nH]c12
(Q) Rank entries according to their pIC50, from the largest number down. // respond by listing labels in the order requested
(A) III, I, II, IV, V
(III: 8.14, I: 7.85, II: 7.55, IV: 6.70, V: 5.98)
